Biological target: mouse brain native GABAARs
Experiment: 5 nM [3H]muscimol displacement from mouse brain (sans cerebellum) membranes
Type: binding
Settings: 5 nM [3H]muscimol, mean ± SEM, n = 9; read-out: IC50 for displacing [3H]muscimol binding
assay_endpoint: IC50

Record NCCCS(=O)(=O)O , field IC50: 158 nM

====

Target: mouse brain native GABAARs
Assay: 5 nM [3H]muscimol displacement from mouse brain (sans cerebellum) membranes
Format: binding
Details: 5 nM [3H]muscimol, room temperature, mean ± SEM, n = 9; read-out: IC50 for displacing [3H]muscimol binding
assay_endpoint: pIC50
Field pIC50 (float): negative decimal logarithm of the concentration in molar.

Summary for this compound, NCCS(=O)(=O)O : pIC50 is 3.90

====

Tested on: native GABAARs in cerebellar granule cells
Test: Whole-cell patch clamp of cerebellar granule cells in mouse brain slices, cumulative concentration-response
Format: cell-based
Details: read-out: EC50 for evoking GABAAR-mediated current; CGCs held at −70 mV, 10 μM DNQX, 0.3 μM TTX, room temperature, mean ± SEM, n = 7
assay_endpoint: EC50

// field: EC50; key: NCCS(=O)(=O)O ; value = 116 µM

====

Biological target: mouse brain native GABAARs
Assay: 5 nM [3H]muscimol displacement from mouse brain (sans cerebellum) membranes
Type: binding
Conditions: 5 nM [3H]muscimol, room temperature, mean ± SEM, n = 9; listed as Homotaurine; read-out: IC50 for displacing [3H]muscimol binding
assay_endpoint: IC50 (µM)
Give just the number in µM; leave the unit off.

Record summary for NCCCS(=O)(=O)O [HT, Homotaurine] : reported IC50 = 0.158
